Entries and their measured MIC follow.
System: Mycobacterium tuberculosis
Assay: Antimycobacterial activity against Mycobacterium tuberculosis H37Rv MC2 6206 by CLSI method
Assay type: functional
Number only, in µg/mL; omit the unit.

[[record]]
compound = "CC1CC(C(=O)Nc2nc3ccc(Br)cc3s2)CC(C)(C)C1 (centres undefined)"
measured_attribute = "MIC"
quantity_unit = "µg/mL"
observed_value = 2

[[record]]
compound = "CC1CC(C(=O)Nc2nc3ccc(F)cc3s2)CC(C)(C)C1 (centres undefined)"
measured_attribute = "MIC"
quantity_unit = "µg/mL"
observed_value = 4

[[record]]
compound = "CC12CCCC(C(=O)Nc3nc4ccc(OC(F)(F)F)cc4s3)(CCC1)C2"
measured_attribute = "MIC"
quantity_unit = "µg/mL"
observed_value = 1


Consider the compound CC1CC(C(=O)Nc2nc3c(F)c(F)c(F)cc3s2)CC(C)(C)C1 (centres undefined) and give its measured MIC.
1

Consider the compound CC1CC(C)CC(C(=O)Nc2nc3ccc(C(F)(F)F)cc3s2)C1 (centres undefined) and give its measured MIC.
4

Consider the compound CC1(C(=O)Nc2nc3ccc(OC(F)(F)F)cc3s2)CCCCC1 and give its measured MIC.
4

Consider the compound CC1CC(C(=O)Nc2nc3ccccc3s2)CC(C)(C)C1 (centres undefined) and give its measured MIC.
8
